Cited source for all entries: patent US8563553B2

target: b-Raf(V600E) (Homo sapiens (Human), UniProt P15056, V600E); assay: Raf/Mek Amplified Luminescence Proximity Homogeneous Assay (Alpha Screen); conditions: b-Raf(V600E) approximately 4 pM; biotinylated Mek, kinase dead approximately 10 nM; ATP 10 μM; pre-incubation 60 minutes; reaction 3 hours at room temperature; read-out: mut-B-RAF IC50
Sequence (P15056 whole entry V600E): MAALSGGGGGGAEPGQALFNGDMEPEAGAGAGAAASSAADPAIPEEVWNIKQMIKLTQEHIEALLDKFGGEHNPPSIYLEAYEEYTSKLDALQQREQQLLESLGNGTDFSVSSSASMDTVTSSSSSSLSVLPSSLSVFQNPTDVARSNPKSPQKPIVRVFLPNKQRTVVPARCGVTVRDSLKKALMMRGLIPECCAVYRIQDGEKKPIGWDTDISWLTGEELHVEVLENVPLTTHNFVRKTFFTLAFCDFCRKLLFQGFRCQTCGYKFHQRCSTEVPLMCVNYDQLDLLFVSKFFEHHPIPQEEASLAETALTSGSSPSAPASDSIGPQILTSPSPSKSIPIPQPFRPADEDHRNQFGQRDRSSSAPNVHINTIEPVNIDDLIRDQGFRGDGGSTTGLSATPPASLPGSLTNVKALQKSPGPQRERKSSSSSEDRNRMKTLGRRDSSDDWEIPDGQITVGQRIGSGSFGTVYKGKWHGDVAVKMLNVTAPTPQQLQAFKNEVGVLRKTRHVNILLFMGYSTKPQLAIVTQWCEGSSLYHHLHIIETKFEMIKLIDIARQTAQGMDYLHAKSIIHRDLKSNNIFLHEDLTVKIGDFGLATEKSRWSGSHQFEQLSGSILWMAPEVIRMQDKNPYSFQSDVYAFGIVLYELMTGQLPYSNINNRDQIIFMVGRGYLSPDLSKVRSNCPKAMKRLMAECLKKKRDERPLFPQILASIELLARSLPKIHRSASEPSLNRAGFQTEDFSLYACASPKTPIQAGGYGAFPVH
pIC50: −log10 of the molar value.
pIC50 vs 9: at or above is Criterion met, below is Criterion not met.

Ask: Say whether CCCS(=O)(=O)Nc1cc(Cl)cc(-c2nc(C(C)(C)C)[nH]c2-c2ccnc(N)n2)c1F [Example 1BH] shows pIC50 of 9 or more.
Result: Criterion met

Ask: Say whether COC(=O)N[C@@H](C)CNc1nccc(-c2[nH]c(C(C)(C)C)nc2-c2cc(Cl)cc(NS(C)(=O)=O)c2F)n1 [Example 1AI] shows pIC50 of 9 or more.
Result: Criterion met

Ask: Say whether COC(=O)N[C@@H](C)CNc1nccc(-c2[nH]c(C3CC3)nc2-c2cc(F)cc(NS(=O)(=O)c3c(F)cccc3F)c2Cl)n1 [Example 1BI] shows pIC50 of 9 or more.
Result: Criterion met

Ask: Say whether COC(=O)N[C@@H](C)CNc1nccc(-c2[nH]c(C(C)(C)C)nc2-c2cc(Cl)cc(NS(=O)(=O)C3CC3)c2C)n1 [Example 1N] shows pIC50 of 9 or more.
Result: Criterion not met

====

target: b-Raf(V600E) (Homo sapiens (Human), UniProt P15056, V600E); test: Raf/Mek Amplified Luminescence Proximity Homogeneous Assay (Alpha Screen); details: b-Raf(V600E) approximately 4 pM; biotinylated Mek, kinase dead approximately 10 nM; ATP 10 μM; pre-incubation 60 minutes; reaction 3 hours at room temperature; read-out: mut-B-RAF IC50
I'd appreciate it if you could label each record using IC50 and these ranges: bottom bin = under 0.3 nM, middle bin = from 0.3 nM up to 1 nM, top bin = 1 nM and over

# example entries with known answers
>>> df
                                   compound  label_value
0  COC(=O)N[C@@H](C)CNc1nccc(-c2[nH]c(C3CC3)nc2-c2cc(Cl)cc(NS(C)(=O)=O)c2Cl)n1   bottom bin
1  CCS(=O)(=O)Nc1cc(F)cc(-c2nc(C3CC3)[nH]c2-c2ccnc(NC[C@H](C)NC(=O)OC)n2)c1Cl   middle bin
2  COC(=O)N[C@@H](C)CNc1nccc(-c2[nH]c(C3CC3)nc2-c2cc(F)cc(NS(C)(=O)=O)c2Cl)n1   middle bin

Ask: Just checking, what class would you give COC(=O)N[C@@H](C)CNc1nccc(-c2[nH]c(-c3ccc(C(F)(F)F)cc3)nc2-c2cc(F)cc(NS(C)(=O)=O)c2Cl)n1 here?
Result: top bin

Ask: Just checking, what class would you give CC(C)(C)c1nc(-c2cc(F)cc(NS(C)(=O)=O)c2Cl)c(-c2ccnc(N)n2)[nH]1 here?
Result: top bin

Ask: Just checking, what class would you give COC(=O)N[C@@H](C)CNc1nccc(-c2nc(C3CC3)[nH]c2-c2cc(Cl)cc(NS(=O)(=O)CCC(F)(F)F)c2F)n1 here?
Result: middle bin

Ask: Just checking, what class would you give CC(C)(C)c1nc(-c2cc(F)cc(NS(=O)(=O)c3c(F)cccc3F)c2Cl)c(-c2ccnc(N)n2)[nH]1 here?
Result: bottom bin

Ask: Just checking, what class would you give COC(=O)N[C@@H](C)CNc1nccc(-c2[nH]c(C(C)(C)C)nc2-c2cc(Cl)cc(NS(C)(=O)=O)c2)n1 here?
Result: middle bin

Ask: Just checking, what class would you give Nc1nccc(-c2[nH]c(C3CC3)nc2-c2cc(F)cc(NS(=O)(=O)c3c(F)cccc3F)c2Cl)n1 here?
Result: bottom bin

Ask: Just checking, what class would you give CCS(=O)(=O)Nc1cc(Cl)cc(-c2nc(C(C)(C)C)[nH]c2-c2ccnc(NC[C@H](C)NC(=O)OC)n2)c1 here?
Result: bottom bin

Ask: Just checking, what class would you give CCC(C)S(=O)(=O)Nc1cc(Cl)cc(-c2nc(C(C)(C)C)[nH]c2-c2ccnc(NC[C@H](C)NC(=O)OC)n2)c1 (stereo partly drawn) here?
Result: middle bin

Ask: Just checking, what class would you give COC(=O)N[C@@H](C)CNc1nccc(-c2[nH]c(C(C)(C)C)nc2-c2cc(NS(=O)(=O)C3CC3)c(C)c(OC)c2)n1 here?
Result: top bin

Ask: Just checking, what class would you give COC(=O)N[C@@H](C)CNc1nccc(-c2[nH]c(C3CC3)nc2-c2c(F)ccc(NS(C)(=O)=O)c2Cl)n1 here?
Result: top bin

Ask: Just checking, what class would you give CC(C)CNc1nccc(-c2[nH]c(C3CC3)nc2-c2cc(F)cc(NS(C)(=O)=O)c2Cl)n1 here?
Result: top bin

Ask: Just checking, what class would you give COC(=O)N[C@@H](C)CNc1nccc(-c2[nH]c(C3CC3)nc2-c2cc(C)cc(NS(=O)(=O)CC(F)(F)F)c2F)n1 here?
Result: bottom bin

Ask: Just checking, what class would you give CCS(=O)(=O)Nc1cc(Cl)cc(-c2[nH]c(C3CC3)nc2-c2ccnc(NC[C@H](C)NC(=O)OC)n2)c1F here?
Result: bottom bin

Ask: Just checking, what class would you give COC(=O)N[C@@H](C)CNc1nccc(-c2[nH]c(C(C)(C)C)nc2-c2cccc(NS(=O)(=O)C3CC3)c2F)n1 here?
Result: bottom bin

Ask: Just checking, what class would you give COC(=O)N[C@@H](C)CNc1nccc(-c2[nH]c(C(C)(C)C)nc2-c2cccc(NS(=O)(=O)C(C)C)c2F)n1 here?
Result: middle bin

Ask: Just checking, what class would you give CCCS(=O)(=O)Nc1cccc(-c2nc(C3CC3)[nH]c2-c2ccnc(NC[C@H](C)NC(=O)OC)n2)c1Cl here?
Result: bottom bin
